B1: tRNA (parent)
chain: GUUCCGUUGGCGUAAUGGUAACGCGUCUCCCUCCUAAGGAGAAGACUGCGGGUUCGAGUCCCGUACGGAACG

variants of: B1; assay: yeast fitness relative to wild type (ratio to wild type); higher = fitter; tRNA-Arg(CCU), competitive growth, 37 C, YPD
Fewer inactive variants are shown than the library holds.
Record form. Attribute: yeast fitness. Fill in for each entry.
No unit in the answer, please; the number alone is enough.

Fill in the blank: the reported yeast fitness of GUUCCGUUGGCGUAAUGGUAACGCGCCUCCCUUCUAAGGAGAAGACUGCGGCUUCGAGUCCCGUACGGAACG [U26C C33U G52C] is ____. 0.609

What value of yeast fitness has been reported for the following variant? GCUCCGUUGGCGUAAUGGUAACGCGUCUCCCUCCUAAGGAGAAGACUGCGGGAUCGAGUCCCGUACGGAACG [U2C U53A] 0.7

Reported yeast fitness, variant GUUCCGUUGGCGUUAUGGUAACUCGUCUCCCUCCUAAGGAGAAGACUGCGGGUUCGAGUCCCGUACGGAACG [A14U G23U] : ____ 0.59

Request the reported yeast fitness associated with GUUCCGUUGGCGUAAUGGCAACGCGCCUCCCUCCUAAGGAGAAGACUGCGGGUUCGAGUCCCGUACGGAACG [U19C U26C] 0.928

What yeast fitness value was documented for this variant, GUUCCGUUGGCGUAAUGGUAACGCGUCUCCCUCCUAGGGAGAAGACUGUGGGUUCGAGUCCCGUACGGAACG [A37G C49U] ? 0.819

What does the record list as yeast fitness for GUUCCGUUGGCGUAAUGGUAACGCGUCUCCCUCCUAAGGAGCAGACUGCGGGUUCGAGGCCCGUACGGAACG [A42C U59G] ? 0.752

Endpoint output: yeast fitness of GUUCAGUUGGCGUAAUGGUAACGGGUCUCCGUCCUAAGGAGAAGACUGCGGGUUCGAGUCCCGUACGGAACG [C5A C24G C31G] . Value? 0.555

Please look up its yeast fitness: GUUCCGUUGGCGUCAUGGUAACGCGUCUCCCUCCUAAGGAGAAGACUGCGGGUUCGAGUCCCGCACGGAACG [A14C U64C] 0.935

Returns the measured yeast fitness for the input variant. Input: GUUCCGUUGGAGUAAUGGUAACGCGUCUCCCUCCUAAGGAGCAGACUGCGGGUUCGAAUCCCGUACGGAACG [C11A A42C G58A] 0.742

Would you mind telling me what yeast fitness value was observed for GUUCCGUUGGCGGAAUGGUAACGCGUCUCCCUCCUAAGGAGAAGCCUACGGGUUCGAGUCCCGUACGGAACG [U13G A45C G48A] ? 0.898

Returns the measured yeast fitness for the input variant. Input: GUUCCGUUGGCGUAAUGGUAACGCGUCUCCCUCUUAAGGAAAAGACUGCGGGUUCGAGUCCCGUACGGAACG [C34U G41A] 0.606

Which yeast fitness reading was recorded for the variant GUUCCGUUGGCGUAAUGGUUACGCGUCUCCCUCCUAUGGAGAAGACUGCGGGUUCGAGCCCCGUACGGAACG [A20U A37U U59C] ? 0.675

Values compiled from the RNAGym collection of RNA variant scans (doi:10.1126/science.aae0568).
